Test system: UISO cells (VN-MCC)
Assay: qHTS cell viability (CellTiter-Glo, 72 h; primary and follow-up small molecule screen)
Type: cell-based, human
Settings: UISO, 72h, Log (M) -6.2907
Provide the reported Percent viability of each item.
A number alone suffices; assume %.

Incoming: Find the recorded Percent viability belonging to O=C(Nc1cccc(Cl)c1)Nc1ncc(CCNc2ncnc3ccsc23)s1 [SNS-314, reference compound] and report it.
Outgoing: 70.9

Incoming: Find the recorded Percent viability belonging to CCn1cc(-c2ccnc3[nH]c(-c4cccc(CN(C)C)c4)cc23)c(-c2ccc(NC(=O)N(C)C)cc2)n1 [GSK-1070916A, reference compound] and report it.
Outgoing: 52.9

Incoming: Find the recorded Percent viability belonging to CCS(=O)(=O)c1cccc(-c2cc(C(=O)NC3CCN(C)CC3)c(C)c3[nH]c4ncc(C)cc4c23)c1 [TAK-901, reference compound] and report it.
Outgoing: 16.4

Incoming: Find the recorded Percent viability belonging to Cc1cc(Nc2cc(N3CCN(C)CC3)nc(Sc3ccc(NC(=O)C4CC4)cc3)n2)[nH]n1 [Tozasertib, reference compound] and report it.
Outgoing: 69.6
